protocol notes: antimalarial activity against Dd2 strain (AID 2302);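 also: 0% = DMSO untreated growth and 100% = chloroquine plus artemisinin killed control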
condition: P. falciparum Dd2 in RBCs, LDH growth readout, 72 h; at 2 µM; stronger effect = higher value
assay metric: growth inhibition (%)

>  <molecule>
Nc1ncc(-c2ccc3[nH]ccc3c2)c2ccc(-c3ccncc3)cc12

>  <assay metric>
growth inhibition

>  <result unit>
%

>  <obs value>
100

$$$$
>  <molecule>
CCCCCCCN1CC[C@@H](CCCc2ccnc3ccc(OCCN4CCNCC4)cc23)[C@@H](CC)C1

>  <assay metric>
growth inhibition

>  <result unit>
%

>  <obs value>
98

$$$$
>  <molecule>
Clc1ccc2c(N3CCCNCC3)ccnc2c1

>  <assay metric>
growth inhibition

>  <result unit>
%

>  <obs value>
99

$$$$
>  <molecule>
CCCCNC(=O)[C@H](CC1CCCCC1)NC(=O)c1ccc(O)c(-c2ccc(OC)cc2)c1

>  <assay metric>
growth inhibition

>  <result unit>
%

>  <obs value>
12

$$$$
>  <molecule>
Cc1ncc([N+](=O)[O-])n1CCOC(=O)NC(Nc1ccc(Br)cc1)C(Cl)(Cl)Cl (centres undefined)

>  <assay metric>
growth inhibition

>  <result unit>
%

>  <obs value>
102

$$$$
>  <molecule>
C[C@@H](C(=O)N1CCOCC1)N1CC[C@H](NS(=O)(=O)c2ccc3ccnc(N)c3c2)C1=O

>  <assay metric>
growth inhibition

>  <result unit>
%

>  <obs value>
61

$$$$
>  <molecule>
CN(CCC(CCN1CCC(c2c[nH]c3ccccc23)CC1)c1ccccc1)C(=O)Nc1ccc(Cl)c(Cl)c1 (centres undefined)

>  <assay metric>
growth inhibition

>  <result unit>
%

>  <obs value>
21

$$$$
>  <molecule>
Cc1ccc(NC(=O)NC2CCN(CCCCCNC(=O)[C@@H]3C[C@H]3c3ccc(Cl)c(Cl)c3)CC2)cc1

>  <assay metric>
growth inhibition

>  <result unit>
%

>  <obs value>
19

$$$$
>  <molecule>
CCOC(=O)CCCCCNC[C@H](O)c1ccccc1

>  <assay metric>
growth inhibition

>  <result unit>
%

>  <obs value>
0

$$$$
>  <molecule>
COc1cc(NC(=O)/C=C/c2ccccc2OC(F)(F)F)cc(OCCN2CCN(CCN3CCOCC3)CC2)c1

>  <assay metric>
growth inhibition

>  <result unit>
%

>  <obs value>
25

$$$$
>  <molecule>
CC(C)(C)c1ccc(NC(=O)c2ccc(CN3CCCN(Cc4ccc(F)cc4)CC3)cc2)cc1

>  <assay metric>
growth inhibition

>  <result unit>
%

>  <obs value>
7

$$$$
>  <molecule>
O=c1cc(N2CCNCC2)c(Cl)nn1Cc1ccc(NS(=O)(=O)c2ccc(Oc3ccccc3)cc2)cc1

>  <assay metric>
growth inhibition

>  <result unit>
%

>  <obs value>
-5

$$$$
>  <molecule>
Nc1ccc(-c2ccc3ccnc(N)c3c2)cc1

>  <assay metric>
growth inhibition

>  <result unit>
%

>  <obs value>
68

$$$$
>  <molecule>
Cc1cccc2[nH]c(-c3ccc(-c4cccc(CN5CCC(N)C5)c4)s3)nc12 (centres undefined)

>  <assay metric>
growth inhibition

>  <result unit>
%

>  <obs value>
78

$$$$
>  <molecule>
O=C(Nc1ccnc(N2CCCN(Cc3cccc(O)c3)CC2)c1)c1ccc(F)cc1

>  <assay metric>
growth inhibition

>  <result unit>
%

>  <obs value>
3

$$$$
>  <molecule>
C[C@@H](COc1ccc(-c2ccccc2)cc1)CON1C(N)=NC(N)=NC1(C)C

>  <assay metric>
growth inhibition

>  <result unit>
%

>  <obs value>
96

$$$$
>  <molecule>
NCC1CCCN1Cc1ccc(-c2cccc(-c3nc4ccc(C(F)(F)F)cc4[nH]3)c2)cc1 (centres undefined)

>  <assay metric>
growth inhibition

>  <result unit>
%

>  <obs value>
97

$$$$
>  <molecule>
CN(Cc1cccc(O)c1)C1CCN(c2cc(NC(=O)c3cccc(F)c3)ccn2)CC1

>  <assay metric>
growth inhibition

>  <result unit>
%

>  <obs value>
37

$$$$
>  <molecule>
Cc1ccc(Cn2ncc(N3CCC(N)CC3)c(Cl)c2=O)cc1NC(=O)Nc1ccc(-c2ccccc2)cc1

>  <assay metric>
growth inhibition

>  <result unit>
%

>  <obs value>
25

$$$$
>  <molecule>
CCc1cccc2c(C#N)cn(CC(=O)NCCc3ccccc3)c12

>  <assay metric>
growth inhibition

>  <result unit>
%

>  <obs value>
64

$$$$
>  <molecule>
CCCCc1cc(NCc2ccncc2)nc(Nc2ccc(C)cc2)n1

>  <assay metric>
growth inhibition

>  <result unit>
%

>  <obs value>
59

$$$$
>  <molecule>
CC(=O)Nc1cccc(C(=O)Nc2cccc(-c3ccc(-c4nc5c(C)cccc5[nH]4)cc3)c2)c1

>  <assay metric>
growth inhibition

>  <result unit>
%

>  <obs value>
12

$$$$
>  <molecule>
Cc1nc(SCC(=O)N2CCCC2=O)c2c(C)c(C)sc2n1

>  <assay metric>
growth inhibition

>  <result unit>
%

>  <obs value>
0

$$$$
>  <molecule>
Cc1nc(-c2ccc(-c3ccc(NC(=O)c4coc5ccc(N6C[C@@H](C)N(C)[C@@H](C)C6)cc45)cc3)c(C)c2)no1

>  <assay metric>
growth inhibition

>  <result unit>
%

>  <obs value>
46

$$$$
>  <molecule>
CN(C)c1ccc(-c2ccc(C(=O)NC3CCN(Cc4ccccc4)CC3)s2)cc1

>  <assay metric>
growth inhibition

>  <result unit>
%

>  <obs value>
10

$$$$
>  <molecule>
Cc1cc(N[C@@H](CC(C)C)C(=O)Nc2ccccc2)nc(NCC2CCCCC2)n1

>  <assay metric>
growth inhibition

>  <result unit>
%

>  <obs value>
95

$$$$
>  <molecule>
COc1cccc(Nc2nc(C)cc(NCc3ccc(-c4c(C)noc4C)cc3)n2)c1

>  <assay metric>
growth inhibition

>  <result unit>
%

>  <obs value>
42

$$$$
>  <molecule>
COCCn1c(Sc2ncnc3sccc23)nc2ccccc21

>  <assay metric>
growth inhibition

>  <result unit>
%

>  <obs value>
72

$$$$
>  <molecule>
Fc1ccc(NC(=S)NCCc2ccccc2)cc1

>  <assay metric>
growth inhibition

>  <result unit>
%

>  <obs value>
0

$$$$
>  <molecule>
Cc1cccc2[nH]c(-c3ccc(-c4cccc(CNCc5cccc(N)c5)c4)s3)nc12

>  <assay metric>
growth inhibition

>  <result unit>
%

>  <obs value>
85

$$$$
>  <molecule>
CCCC(N)C(=O)NC1CCN(c2c(F)c(N)c3c(=O)c(C(=O)O)cn4c3c2Oc2ccccc2-4)C1 (centres undefined)

>  <assay metric>
growth inhibition

>  <result unit>
%

>  <obs value>
98

$$$$
>  <molecule>
Cc1nnsc1C(=O)Nc1cccc(-c2ccc(-c3nc4ccccc4[nH]3)s2)c1

>  <assay metric>
growth inhibition

>  <result unit>
%

>  <obs value>
13

$$$$
>  <molecule>
Nc1ccc(Nc2ccnc3ccc(C(F)(F)F)cc23)cc1O

>  <assay metric>
growth inhibition

>  <result unit>
%

>  <obs value>
59

$$$$
>  <molecule>
Cc1cc(N[C@@H](Cc2ccccc2)C(=O)NCc2cccc(F)c2)nc(NCCc2cccs2)n1

>  <assay metric>
growth inhibition

>  <result unit>
%

>  <obs value>
22

$$$$
>  <molecule>
O=C(CC(c1ccccc1)c1ccccc1O)N1CCOCC1 (centres undefined)

>  <assay metric>
growth inhibition

>  <result unit>
%

>  <obs value>
5

$$$$
>  <molecule>
COc1cc(O)c2c(=O)c(OC)c(-c3cccc(Cl)c3OC3O[C@H](CO)[C@@H](O)[C@H](O)[C@H]3O)oc2c1OC (some centres undefined)

>  <assay metric>
growth inhibition

>  <result unit>
%

>  <obs value>
6

$$$$
>  <molecule>
Cc1ccccc1C(=O)NC(NC(=S)Nc1ccc([N+](=O)[O-])cc1)C(Cl)(Cl)Cl (centres undefined)

>  <assay metric>
growth inhibition

>  <result unit>
%

>  <obs value>
39

$$$$
>  <molecule>
O=C(NCC1COc2ccccc2O1)c1cnc2c(c1)nc(-c1cnc(-c3ccccc3)[nH]1)n2CCSCc1c(F)cccc1Cl (centres undefined)

>  <assay metric>
growth inhibition

>  <result unit>
%

>  <obs value>
10

$$$$
>  <molecule>
COc1cc(NC(=O)N2CCc3ccc(OCCN4CCCCC4)cc32)cc(C(F)(F)F)c1

>  <assay metric>
growth inhibition

>  <result unit>
%

>  <obs value>
93

$$$$
